Data provenance is patent US12415807B2.

Test system: pSHP2 (PKCβ cell assay)
Experiment: pSHP2 (PKCβ cell assay)
Assay type: cell-based
measured-quantity: IC50 (nM)

{"columns": ["smiles-repr", "measured-quantity", "reported"],
 "data": [
  ["Cc1ncc(F)c(Nc2n[nH]c3c2CN(C(=O)N2C[C@@H](C)N(CC4CCOCC4)C[C@@H]2C)C3(C)C)n1", "IC50", 9.8]
]}
